// data source = patent US7135466B2

Measurement Target: c-kit (Homo sapiens)
Construct: MO7e (human megakaryocytic leukemia cell line) which had been arrested for 20 hr; endogenous in cells; host or cells: MO7e human megakaryocytic leukemia cell line
Assay Summary: Inhibitory activity against c-kit autophosphorylation (MO7e cells, h-SCF)
Type: cell-based
Stated Conditions: MO7e cells, 50 ng/ml h-SCF; read-out: c-kit IC50
Observation Type: IC50 (µM)
Give bare numbers, in µM.

Worked examples follow.
1. CCCC(CCN(CC)CC)OC(=O)Nc1ccc(Oc2ncnc3cc(OC)c(OC)cc23)cc1 (centres unmarked)
0.972
2. COc1cc2nccc(Oc3ccc(OCCCOc4ccccc4F)cc3)c2cc1OC
0.394
3. COc1cc2nccc(Oc3ccc(NC(=O)NNc4ccccc4)c(F)c3)c2cc1OC
0.173
4. COc1cc2nccc(Oc3ccc(OCCCOc4ccccc4OC)cc3)c2cc1OC
0.336
5. CCN(CC)CCNC(=O)Nc1cc(C)c(Oc2ccnc3cc(OC)c(OC)cc23)cc1C
0.632

Hi! Can you tell me IC50 for each of these compounds?
1. COc1cc2nccc(Oc3ccc(OCCNc4ccccc4C)cc3)c2cc1OC
2. CCN(CCNC(=O)Nc1ccc(Oc2ncnc3cc(OC)c(OC)cc23)cc1)c1cccc(C)c1
3. COc1cc2ncnc(Oc3ccc(NC(=O)NCCN4CCCCC4)cc3)c2cc1OC
4. CCCCCC(C)OC(=O)Nc1cc(C)c(Oc2ccnc3cc(OC)c(OC)cc23)cc1C (centres unmarked)
5. COc1cc2nccc(Oc3ccc(OCCCOc4ccc(F)cc4)cc3)c2cc1OC
6. COc1cc2ncnc(Oc3ccc(NC(=O)N[C@H]4CCN(Cc5ccccc5)C4)c([N+](=O)[O-])c3)c2cc1OC

Given back:
0.451
0.097
0.632
0.122
0.439
0.104

* * *

Measurement Target: PDGF-Ra (Homo sapiens)
Construct: host or cells: G-292 human osteosarcoma cells
Sequence (P16234 24-1089): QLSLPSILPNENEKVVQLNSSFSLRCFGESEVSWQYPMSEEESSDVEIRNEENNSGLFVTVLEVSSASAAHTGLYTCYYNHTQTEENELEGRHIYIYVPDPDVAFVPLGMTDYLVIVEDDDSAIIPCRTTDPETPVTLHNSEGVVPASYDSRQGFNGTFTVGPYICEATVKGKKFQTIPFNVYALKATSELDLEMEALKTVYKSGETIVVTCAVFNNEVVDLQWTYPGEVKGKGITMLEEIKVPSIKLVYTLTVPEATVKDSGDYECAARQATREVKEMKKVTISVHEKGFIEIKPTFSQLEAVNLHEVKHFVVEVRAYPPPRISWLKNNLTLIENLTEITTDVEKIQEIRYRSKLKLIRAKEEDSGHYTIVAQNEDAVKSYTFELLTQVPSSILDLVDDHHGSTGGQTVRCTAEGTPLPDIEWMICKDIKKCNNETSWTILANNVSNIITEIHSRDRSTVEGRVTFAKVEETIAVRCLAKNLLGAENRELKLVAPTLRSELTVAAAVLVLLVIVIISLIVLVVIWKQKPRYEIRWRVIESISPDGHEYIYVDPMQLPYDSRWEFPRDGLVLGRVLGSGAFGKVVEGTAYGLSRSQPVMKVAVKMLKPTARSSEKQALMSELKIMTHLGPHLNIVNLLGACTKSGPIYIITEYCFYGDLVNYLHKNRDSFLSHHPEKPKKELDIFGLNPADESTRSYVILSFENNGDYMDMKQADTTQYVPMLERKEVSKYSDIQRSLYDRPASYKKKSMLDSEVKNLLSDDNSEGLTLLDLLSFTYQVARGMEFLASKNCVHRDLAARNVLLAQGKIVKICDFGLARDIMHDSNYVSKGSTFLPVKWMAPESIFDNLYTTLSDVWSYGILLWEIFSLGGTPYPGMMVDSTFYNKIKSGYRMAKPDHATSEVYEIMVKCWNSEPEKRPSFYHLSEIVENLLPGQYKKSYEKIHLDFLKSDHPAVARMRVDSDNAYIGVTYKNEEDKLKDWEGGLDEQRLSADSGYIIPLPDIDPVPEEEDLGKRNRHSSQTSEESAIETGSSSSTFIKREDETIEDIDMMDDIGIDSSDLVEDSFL
Assay Summary: Inhibitory activity against PDGF-Ra phosphorylation by PDGF-AA stimulation using G292
Assay type: cell-based
Stated Conditions: G292; figure within parentheses in >100( ); at 100 nM; read-out: PDGF (E) inhibition (%) at 100 nM
Observation Type: inhibition at 0.1 µM
Answer by giving the amount and then stating its unit.

Hi! Can you tell me inhibition at 0.1 µM for each of these compounds?
1. COc1cc2nccc(Oc3ccc(NC(=S)NC(=O)CCSC)c(C)c3)c2cc1OC [Example 696]
2. CCCCOc1ccc(C(=O)NC(=S)Nc2ccc(Oc3ccnc4cc(OC)c(OC)cc34)c(Cl)c2)cc1 [Example 752]
3. COc1cc2nccc(Oc3ccc(NC(=S)NC(=O)c4ccc(Cl)s4)c(C)c3)c2cc1OC [Example 694]
4. CCCCCOc1ccc(C(=O)NC(=S)Nc2ccc(Oc3ccnc4cc(OC)c(OC)cc34)cc2)cc1 [Example 753]

Given back:
1. 37%
2. 37%
3. 12%
4. 28%

* * *

Give pIC50 for every item shown.
Measurement Target: c-kit (Homo sapiens, UniProt P10721)
Construct: MO7e (human megakaryocytic leukemia cell line) which had been arrested for 20 hr; endogenous in cells; host or cells: MO7e human megakaryocytic leukemia cell line
Sequence (P10721 26-976): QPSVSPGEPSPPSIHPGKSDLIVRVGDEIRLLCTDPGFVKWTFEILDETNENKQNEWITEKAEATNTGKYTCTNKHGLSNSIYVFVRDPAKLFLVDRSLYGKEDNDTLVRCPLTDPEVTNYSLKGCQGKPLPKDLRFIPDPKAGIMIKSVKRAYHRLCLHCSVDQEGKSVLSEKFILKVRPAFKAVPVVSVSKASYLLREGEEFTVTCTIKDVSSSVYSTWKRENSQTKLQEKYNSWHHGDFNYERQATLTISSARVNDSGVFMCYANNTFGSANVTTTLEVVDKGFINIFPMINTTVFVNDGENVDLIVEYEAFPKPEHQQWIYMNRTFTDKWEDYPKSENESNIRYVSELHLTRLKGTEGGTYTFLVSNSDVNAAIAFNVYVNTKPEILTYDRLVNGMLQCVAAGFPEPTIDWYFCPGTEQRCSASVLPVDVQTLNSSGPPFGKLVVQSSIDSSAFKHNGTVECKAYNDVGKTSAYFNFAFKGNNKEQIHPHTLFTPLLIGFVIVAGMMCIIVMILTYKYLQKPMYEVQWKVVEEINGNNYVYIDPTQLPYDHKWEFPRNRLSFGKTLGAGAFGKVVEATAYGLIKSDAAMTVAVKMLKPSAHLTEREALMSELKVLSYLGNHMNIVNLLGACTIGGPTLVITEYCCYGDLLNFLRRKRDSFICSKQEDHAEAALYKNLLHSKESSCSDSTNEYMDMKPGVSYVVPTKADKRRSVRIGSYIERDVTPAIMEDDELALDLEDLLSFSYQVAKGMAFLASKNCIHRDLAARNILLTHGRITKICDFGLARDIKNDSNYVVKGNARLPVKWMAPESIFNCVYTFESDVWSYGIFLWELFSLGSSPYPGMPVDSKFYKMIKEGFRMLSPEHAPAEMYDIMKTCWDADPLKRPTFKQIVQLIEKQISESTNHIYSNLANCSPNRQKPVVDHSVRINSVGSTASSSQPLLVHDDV
Assay Summary: Inhibitory activity against c-kit autophosphorylation (MO7e cells, h-SCF)
Format: cell-based
Stated Conditions: MO7e cells, h-SCF 50 ng/ml; read-out: c-kit IC50
Give bare numbers, as −log10 of the molar value.

1) CCC(OC(=O)Nc1cc(C)c(Oc2ccnc3cc(OC)c(OC)cc23)cc1C)c1ccccc1 (centres unmarked)
6.31
2) COc1cc2nccc(Oc3ccc(NC(=O)OCCCSc4cc(C)ccc4C)c(C)c3C)c2cc1OC
7.47

Hi! Can you tell me pIC50 for each of these molecules?
1. COc1cc2nccc(Oc3ccc(NC(=O)OC4CCc5ccccc5C4)c(C)c3C)c2cc1OC (centres unmarked)
2. COc1cc2nccc(Oc3cc(C)c(NC(=O)Oc4ccccc4OC)cc3C)c2cc1OC
3. COc1cc2ncnc(Oc3ccc(NC(=O)OCCSc4ccc(C)cc4)cc3)c2cc1OC
4. COc1cc2ncnc(Oc3ccc(NC(=O)OCCN(C)C)cc3)c2cc1OC
5. COc1cc2nccc(Oc3ccc(NC(=O)Oc4ccc(C(C)(C)C)cc4)cc3)c2cc1OC
6. COc1cc2nccc(Oc3cc(C)c(NC(=O)OCCC4CCCCC4)cc3C)c2cc1OC
7. CCCCOC(=O)Nc1ccc(Oc2ncnc3cc(OC)c(OC)cc23)cc1Cl

Given back:
6.84
6.54
6.63
6.30
6.74
6.42
6.91

Hi! Can you tell me pIC50 for each of these molecules?
1. CCCC(CC)OC(=O)Nc1cc(C)c(Oc2ccnc3cc(OC)c(OC)cc23)cc1C (centres unmarked)
2. COc1ccc(OCCCOC(=O)Nc2ccc(Oc3ncnc4cc(OC)c(OC)cc34)cc2)cc1
3. CCCCc1ccc(OC(=O)Nc2ccc(Oc3ccnc4cc(OC)c(OC)cc34)cc2)cc1
4. CCCCC(CCCC)OC(=O)Nc1ccc(Oc2ccnc3cc(OC)c(OC)cc23)cc1

Given back:
1: 6.38; 2: 7.04; 3: 7.66; 4: 6.37

Hi! Can you tell me pIC50 for each of these molecules?
1. CCCCCCOC(=O)Nc1cc(C)c(Oc2ccnc3cc(OC)c(OC)cc23)cc1C
2. CCCC(CCC)OC(=O)Nc1ccc(Oc2ccnc3cc(OC)c(OC)cc23)c(C)c1C
3. CCCC(CC)OC(=O)Nc1ccc(Oc2ccnc3cc(OC)c(OC)cc23)cc1 (centres unmarked)

Given back:
1: 7.08; 2: 6.32; 3: 6.75
